Target: CYP 2C19 (Homo sapiens, UniProt P33261)
Sequence (P33261 whole entry): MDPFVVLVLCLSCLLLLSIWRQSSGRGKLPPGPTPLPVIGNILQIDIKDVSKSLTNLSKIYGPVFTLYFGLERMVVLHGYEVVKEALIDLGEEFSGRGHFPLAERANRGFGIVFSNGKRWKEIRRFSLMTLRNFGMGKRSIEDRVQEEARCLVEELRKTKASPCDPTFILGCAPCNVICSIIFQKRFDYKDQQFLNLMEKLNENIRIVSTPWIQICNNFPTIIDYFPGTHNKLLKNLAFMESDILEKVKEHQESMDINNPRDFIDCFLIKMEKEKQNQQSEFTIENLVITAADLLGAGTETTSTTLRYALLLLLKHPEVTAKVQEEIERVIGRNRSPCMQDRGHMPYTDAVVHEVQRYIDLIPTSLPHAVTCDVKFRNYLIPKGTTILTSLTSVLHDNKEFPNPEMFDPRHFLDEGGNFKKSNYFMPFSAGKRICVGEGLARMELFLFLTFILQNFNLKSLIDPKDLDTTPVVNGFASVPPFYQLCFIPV
parameter: pIC50
# pIC50 = -log10(concentration in molar units)

# input Query the reported pIC50 for CYP 2C19 (Homo sapiens, UniProt P33261); item: COC1C=COC2(C)Oc3c(C)c(O)c4c(=O)c(c5oc6cc(OCCN(C)C)ccc6nc-5c4c3C2=O)NC(=O)C(C)=CC=CC(C)C(O)C(C)C(O)C(C)C(OC(C)=O)C1C (stereo not shown)
# output 5.00

---

Experiment: in vitro
Details: CD-1, mouse, S9 microsomes
parameter: CLint scaled

# input Record request: CLint scaled value, item `CO[C@H]1/C=C/O[C@@]2(C)Oc3c(C)c(O)c4c(O)c(c(/C=N/N5CCN(C)CC5)c(O)c4c3C2=O)NC(=O)/C(C)=C\C=C\[C@H](C)[C@H](O)[C@@H](C)[C@@H](O)[C@@H](C)[C@H](OC(C)=O)[C@@H]1C`
# output < 45.5 mL/min/kg

---

Assay: in vitro
Settings: CD-1, mouse, S9 microsomes
parameter: remaining at 2 h (%)
Note: unit % is implicit; provide only the numeric part.

# input Record request: remaining at 2 h value, item CO[C@H]1/C=C/O[C@@]2(C)Oc3c(C)c(O)c4c(O)c(c(/C=N/N5CCN(C)CC5)c(O)c4c3C2=O)NC(=O)/C(C)=C\C=C\[C@H](C)[C@H](O)[C@@H](C)[C@@H](O)[C@@H](C)[C@H](OC(C)=O)[C@@H]1C [Compound 1, rifampicin]
# output 125

---

Parameter Papp A→B: see the listing below.
Assay: in vitro
Details: human, Caco-2
Note: unit ×10⁻⁶ cm/s is implicit; provide only the numeric part.

CO[C@H]1/C=C/O[C@@]2(C)Oc3c(C)c(O)c4c(c3C2=O)C2=NC3(CCN(CC(C)C)CC3)NC2=C(NC(=O)/C(C)=C\C=C\[C@H](C)[C@H](O)[C@@H](C)[C@@H](O)[C@@H](C)[C@H](OC(C)=O)[C@@H]1C)C4=O [Rifabutin]    11

Next up:
# input Record request: Papp A→B value, item CO[C@H]1/C=C/O[C@@]2(C)Oc3c(C)c(O)c4c(O)c(c(/C=N/N5CCN(C)CC5)c(O)c4c3C2=O)NC(=O)/C(C)=C\C=C\[C@H](C)[C@H](O)[C@@H](C)[C@@H](O)[C@@H](C)[C@H](OC(C)=O)[C@@H]1C [Compound 1, rifampicin]
# output 0.589

---

Target: P-gp (MDR1) (Homo sapiens, UniProt P08183)
Sequence (P08183 whole entry): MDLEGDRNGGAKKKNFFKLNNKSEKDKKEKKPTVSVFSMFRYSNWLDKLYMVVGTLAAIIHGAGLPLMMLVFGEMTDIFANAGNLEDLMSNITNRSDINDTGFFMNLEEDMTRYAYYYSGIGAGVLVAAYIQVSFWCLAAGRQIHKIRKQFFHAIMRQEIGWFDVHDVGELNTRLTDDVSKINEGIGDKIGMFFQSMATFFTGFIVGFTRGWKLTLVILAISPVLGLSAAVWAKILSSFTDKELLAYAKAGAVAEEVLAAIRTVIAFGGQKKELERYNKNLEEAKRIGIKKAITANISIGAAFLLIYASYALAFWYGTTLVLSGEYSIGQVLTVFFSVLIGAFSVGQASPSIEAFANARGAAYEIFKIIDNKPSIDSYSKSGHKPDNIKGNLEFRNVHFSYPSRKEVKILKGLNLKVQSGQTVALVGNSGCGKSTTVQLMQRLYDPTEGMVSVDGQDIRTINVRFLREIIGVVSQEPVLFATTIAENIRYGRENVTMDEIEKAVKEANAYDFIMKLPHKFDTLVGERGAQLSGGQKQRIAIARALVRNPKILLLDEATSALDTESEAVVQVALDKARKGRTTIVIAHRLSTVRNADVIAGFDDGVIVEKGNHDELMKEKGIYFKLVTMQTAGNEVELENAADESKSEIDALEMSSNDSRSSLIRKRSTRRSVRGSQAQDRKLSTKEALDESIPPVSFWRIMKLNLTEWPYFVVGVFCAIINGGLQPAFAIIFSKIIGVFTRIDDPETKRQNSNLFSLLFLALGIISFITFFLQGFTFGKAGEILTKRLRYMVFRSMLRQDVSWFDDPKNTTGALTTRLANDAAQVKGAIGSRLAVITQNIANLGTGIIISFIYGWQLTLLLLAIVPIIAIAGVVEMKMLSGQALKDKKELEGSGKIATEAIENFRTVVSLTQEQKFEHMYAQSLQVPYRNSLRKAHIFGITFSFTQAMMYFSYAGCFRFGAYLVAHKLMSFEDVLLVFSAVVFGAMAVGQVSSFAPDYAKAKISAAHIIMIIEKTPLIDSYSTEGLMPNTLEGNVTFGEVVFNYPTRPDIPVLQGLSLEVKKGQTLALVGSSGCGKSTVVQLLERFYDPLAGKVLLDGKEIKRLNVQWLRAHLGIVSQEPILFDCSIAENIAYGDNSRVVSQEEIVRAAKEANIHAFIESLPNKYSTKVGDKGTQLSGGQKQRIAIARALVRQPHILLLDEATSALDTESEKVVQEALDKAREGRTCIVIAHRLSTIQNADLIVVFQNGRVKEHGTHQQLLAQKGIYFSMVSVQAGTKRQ
Assay: in vitro
Conditions: dog, MDCK-MDR1
Parameter Papp A→B: see the listing below.
Returns: string containing the number followed by the unit.

CO[C@H]1/C=C/O[C@@]2(C)Oc3c(C)c(O)c4c(c3C2=O)C2=NC3(CCN(CC(C)C)CC3)NC2=C(NC(=O)/C(C)=C\C=C\[C@H](C)[C@H](O)[C@@H](C)[C@@H](O)[C@@H](C)[C@H](OC(C)=O)[C@@H]1C)C4=O    3.57 ×10⁻⁶ cm/s

Next up:
# input Record request: Papp A→B value, item `CO[C@H]1/C=C/O[C@@]2(C)Oc3c(C)c(O)c4c(O)c(c(/C=N/N5CCN(C)CC5)c(O)c4c3C2=O)NC(=O)/C(C)=C\C=C\[C@H](C)[C@H](O)[C@@H](C)[C@@H](O)[C@@H](C)[C@H](OC(C)=O)[C@@H]1C`
# output 0.287 ×10⁻⁶ cm/s
